This collection of values is drawn from PubChem BioAssay AID248.

Would you mind telling me the reported T/C of each entry?
test system: L1210 leukemia ip in BDF1 mice, survival T/C; experiment: NCI In Vivo Anticancer Drug Screen. Data for tumor model L1210 Leukemia (intraperitoneal) in B6D2F1 (BDF1) mice; conditions: endpoint: mean survival time; dose: 100.0 mg/kg/injection; schedule: Q04DX002 (ip); vehicle: Klucel (hydroxypropylcellulose) (HPC); higher = longer survival
Inconclusive results and toxic doses are left out.

Input O=C(O)C1CC(Br)C(Br)CC1C(=O)Nc1cccc2ccccc12 (centres undefined) . Output T/C: 100 % of control

Input "Cc1ccc(CCC(=O)O)c2ccccc12" . Output T/C: 93 % of control

Input "O=C(NCc1ccc(Cl)c(Cl)c1)Nc1ccccc1F" . Output T/C: 102 % of control

Input "Cc1cc(Cl)cc(Cl)c1OCC(=O)O" . Output T/C: 98 % of control

Input "O=S(=O)(N=S(CCCl)CCCl)c1ccccc1" . Output T/C: 111 % of control

Input CCOC(=O)C1C(=O)CC(=O)C(C(=O)OCC)C1c1ccc(OC)c(OC)c1OC (centres undefined) . Output T/C: 103 % of control

Input O=S(=O)(c1ccccc1)C(Br)c1ccc(F)cc1 (centres undefined) . Output T/C: 97 % of control

Input "Cc1ccc(SCCN=C(N)CSS(=O)(=O)O)cc1" . Output T/C: 92 % of control

Input "O=C(OCc1ccccc1CN1CCCCC1)c1ccc([N+](=O)[O-])cc1" . Output T/C: 90 % of control

Input "O=C1OC(c2cccc(Cl)c2)=N/C1=C\c1cccc([N+](=O)[O-])c1" . Output T/C: 103 % of control

Input "COc1ccc(OC)c(C(=O)CSC(=S)OC(C)C)c1" . Output T/C: 96 % of control

Input "N#Cc1c(O)ccc(O)c1C#N" . Output T/C: 90 % of control

Input "CCCCCCCCCCCCNC(=S)NCCCC" . Output T/C: 95 % of control

Input "CCN1CCCN(CC)C1=O" . Output T/C: 96 % of control

Input "Cc1ccc(N=Nc2ccc(C)cc2NC(=O)c2cccc3ccccc23)cc1" . Output T/C: 104 % of control

Input "O=C(COc1ccccc1C(=O)O)Nc1ccccc1" . Output T/C: 96 % of control

Input "O=C(COc1ccc(Cl)cc1Cl)OC(=O)COc1ccc(Cl)cc1Cl" . Output T/C: 95 % of control

Input S=C(NCC1CCCO1)Nc1cccc2ccccc12 (centres undefined) . Output T/C: 95 % of control

Input C=CC1CN2CCC1CC2C(O)c1ccnc2ccc(OC)cc12 (centres undefined) (tested in a mixture with another compound) . Output T/C: 107 % of control

Input "CN1C(=O)N(C)C(=O)C2(C1=O)C1(C(=O)N(C)C(=O)N(C)C1=O)C21C(=O)N(C)C(=O)N(C)C1=O" . Output T/C: 102 % of control

Input N=C(N)SC1c2ccccc2-c2cc([N+](=O)[O-])ccc21 (centres undefined) . Output T/C: 101 % of control

Input NC(=O)C(NC(=O)c1ccccc1)SCc1ccccc1 (centres undefined) . Output T/C: 95 % of control

Input "O=C(O)/C=C(/Oc1ccc(Cl)cc1Cl)C(=O)O" . Output T/C: 97 % of control

Input "CNc1ccccc1C(=O)N/N=C/Cc1ccccc1" . Output T/C: 103 % of control

----------
test system: L1210 leukemia ip in BDF1 mice, survival T/C; test: NCI In Vivo Anticancer Drug Screen. Data for tumor model L1210 Leukemia (intraperitoneal) in B6D2F1 (BDF1) mice; details: endpoint: mean survival time; dose: 50.0 mg/kg/injection; schedule: Q01DX001 (ip); vehicle: carboxymethylcellulose (CMC); higher = longer survival
Inconclusive results and toxic doses are left out.
Would you mind telling me the reported T/C of each entry?

Input "Cc1ccc(S(=O)(=O)OCCN(CCOS(=O)(=O)c2ccc(C)cc2)c2cccc(Cl)c2)cc1" . Output T/C: 98 % of control

Input "CCC(CC)(CC#N)C1CCCCC1" . Output T/C: 98 % of control

Input O=C(OC1CC2CC1C1CCCC21)c1ccc([N+](=O)[O-])cc1 (configuration not stated) . Output T/C: 90 % of control

Input "O=C1c2cc([N+](=O)[O-])ccc2-c2cc(Cl)c([N+](=O)[O-])cc21" . Output T/C: 102 % of control

Input "O=C1c2cc(Br)ccc2-c2c(F)cc(Br)cc21" . Output T/C: 105 % of control

Input Cn1c[n+](C2OC(CO)C(O)C2O)c2nc(N)[nH]c(=O)c21 (configuration not stated) . Output T/C: 92 % of control

Input "CCN1c2ccccc2Sc2ccccc21" . Output T/C: 98 % of control

----------
system: L1210 leukemia ip in BDF1 mice, survival T/C; test: NCI In Vivo Anticancer Drug Screen. Data for tumor model L1210 Leukemia (intraperitoneal) in B6D2F1 (BDF1) mice; details: endpoint: mean survival time; dose: 200.0 mg/kg/injection; schedule: Q01DX009 (ip); vehicle: saline sonified; higher = longer survival
Inconclusive results and toxic doses are left out.
Would you mind telling me the reported T/C of each entry?

Input "O=C1N(Br)C(=O)C(c2ccc(Cl)cc2)(c2ccc(Cl)cc2)N1Br" . Output T/C: 106 % of control

Input "COc1ccc(S(=O)(=O)NCCC#N)cc1NC(C)=O" . Output T/C: 96 % of control

Input "Nc1cc2ccncc2c2ccccc12" . Output T/C: 106 % of control

Input CCCCN(C(=O)C(F)(F)F)C(C)(C)C(SSSC(c1ccc(Cl)cc1)C(C)(C)N(CCCC)C(=O)C(F)(F)F)c1ccc(Cl)cc1 (stereo unspecified) . Output T/C: 100 % of control

Input "O=C(O)c1ccc(COc2ccc([N+](=O)[O-])cc2Cl)cc1" . Output T/C: 97 % of control

Input NC(C(=O)O)C(=O)c1ccccc1 (stereo unspecified) . Output T/C: 101 % of control

----------
Test system: L1210 leukemia ip in BDF1 mice, survival T/C
Assay: NCI In Vivo Anticancer Drug Screen. Data for tumor model L1210 Leukemia (intraperitoneal) in B6D2F1 (BDF1) mice
Details: endpoint: mean survival time; dose: 25.0 mg/kg/injection; schedule: Q04DX002 (ip); vehicle: saline with Tween-80; higher = longer survival
Protocol: The antitumor activity of compounds was measured in mice bearing transplantable tumors. Survival or tumor size were measured and the results are expressed as the measurement made in the treated group (T) divided by the measurement made in the vehicle treated control group (C). The tumor model used in this assay is L1210 Leukemia (intraperitoneal) in B6D2F1 (BDF1) mice
Toxic doses and inconclusive results are not listed.
quantity.kind: T/C

Input "C1CSCS1" . Output T/C: 106 % of control

Input "CN1CCC(C[CH2][Sn]([c]2ccccc2)([c]2ccccc2)[c]2ccccc2)CC1" . Output T/C: 100 % of control

Input "Cc1ccc(C(C)(C)CP(c2ccccc2)c2ccccc2)cc1" . Output T/C: 95 % of control

Input "CC(C)NCCCN" . Output T/C: 98 % of control

Input CP(=O)(CCP(=O)(c1ccccc1)c1ccccc1)c1ccccc1 (configuration not stated) . Output T/C: 94 % of control

Input "CCN(CC)C(=S)Oc1ccc(OC(=S)N(CC)CC)cc1" . Output T/C: 97 % of control

Input "COc1ccc(/C=C/[N+](=O)[O-])cc1" . Output T/C: 89 % of control

----------
system: L1210 leukemia ip in BDF1 mice, survival T/C; assay: NCI In Vivo Anticancer Drug Screen. Data for tumor model L1210 Leukemia (intraperitoneal) in B6D2F1 (BDF1) mice; settings: endpoint: mean survival time; dose: 400.0 mg/kg/injection; schedule: Q04DX003 (ip); vehicle: gum acacia; higher = longer survival
Inconclusive results and toxic doses are left out.
quantity.kind: T/C

Input "O=[N+]([O-])c1ccc(OCc2ccc(S(=O)(=O)F)cc2Cl)c(Cl)c1" . Output T/C: 97 % of control

Input "CCCCCCCCCCCC(=O)Nc1ccc(O)cc1" . Output T/C: 95 % of control

Input "Nc1ccn(Cc2cccc3ccccc23)c(=O)n1" . Output T/C: 90 % of control

Input "S=C(c1ccccc1)N(c1ccccc1)C1CCCCC1" . Output T/C: 88 % of control

----------
test system: L1210 leukemia ip in BDF1 mice, survival T/C; assay: NCI In Vivo Anticancer Drug Screen. Data for tumor model L1210 Leukemia (intraperitoneal) in B6D2F1 (BDF1) mice; details: endpoint: mean survival time; dose: 150.0 mg/kg/injection; schedule: Q01DX009 (ip); vehicle: Klucel (hydroxypropylcellulose) (HPC); higher = longer survival
Toxic doses and inconclusive results are not listed.
Would you mind telling me the reported T/C of each entry?

Input "Nc1cc2c3c(cccc3c1)C(=O)N(Cc1ccccc1)C2=O" . Output T/C: 92 % of control

Input "CC1(C)N=C(N)N=C(N)N1c1cccc(CC(=O)Nc2ccc(S(=O)(=O)F)cc2)c1" . Output T/C: 105 % of control

Input "CCCCc1c(N)nc(=S)[nH]c1C(=O)O" . Output T/C: 106 % of control

Input "O=S(=O)(CS(=O)(=O)c1ccccc1)c1ccccc1" . Output T/C: 98 % of control
